- System: compound 48/80-induced lethality
- ASSAY_METHOD_TEXT: Protection of rats from compound 48/80-induced lethality
- Assay type: in vivo, rats of an inbred Wistar strain
- REPORTED_CONDITIONS: Rattus norvegicus, 4 h, read-out: Compound 48/80 lethality test in rats ED50, s.c. or p.o. 1 h before compound 48/80 0.5 mg/kg i.v.; protection of 50% of animals, survival after 4 hours

MOLECULE: COc1ccc(CCN2CCC(Cc3nc4ccccc4n3Cc3cscn3)CC2)cc1 [Compound 245]
ED50 / mg/kg: 0.02
--
MOLECULE: O=[N+]([O-])c1ccccc1NCCN1CCC(Cc2nc3ccccc3n2Cc2ccc(F)cc2)CC1 [Compound 366]
ED50 / mg/kg: 0.31
--
MOLECULE: Cc1cc(NCCN2CCC(Cc3nc4ccccc4n3Cc3ccc(F)cc3)CC2)nc(Cl)n1 [Compound 383]
ED50 / mg/kg: 0.04
--
MOLECULE: O=c1oc2ccccc2cc1CCN1CCC(Cc2nc3ccccc3n2Cc2ccc(F)cc2)CC1 [Compound 161]
ED50 / mg/kg: 0.04
--
MOLECULE: Cc1nc2n(c(=O)c1CCN1CCC(Oc3nc4ccccc4n3Cc3ccc(F)cc3)CC1)CCCC2 [Compound 264]
ED50 / mg/kg: 0.04
--
MOLECULE: Cc1nc2sccn2c(=O)c1CCN1CCC(Cc2nc3cccnc3n2Cc2ccco2)CC1 [Compound 173]
ED50 / mg/kg: 0.01
--
MOLECULE: O=c1[nH]c2ccccc2c(=O)n1CCCCN1CCC(Cc2nc3ccccc3n2Cc2ccc(F)cc2)CC1 [Compound 489]
ED50 / mg/kg: 0.08
--
MOLECULE: Nc1ccccc1C(=O)NCCCCN1CCC(Cc2nc3ccccc3n2Cc2ccco2)CC1 [Compound 472]
ED50 / mg/kg: 0.04
--
MOLECULE: O=c1oc2ccccc2cc1CCN1CCC(Cc2nc3cccnc3n2Cc2ccco2)CC1 [Compound 174]
ED50 / mg/kg: 0.01
--
MOLECULE: O=S(=O)(CCN1CCC(Cc2nc3ccccc3n2Cc2ccc(F)cc2)CC1)c1ccccc1 [Compound 130]
ED50 / mg/kg: 0.16
--
MOLECULE: CCOC(=O)N1CCC(Cc2nc3ccccc3n2Cc2cccs2)CC1 [Compound 59]
ED50 / mg/kg: 0.02
--
MOLECULE: Fc1ccc(Cn2c(CC3CCNCC3)nc3ncccc32)cc1 [Compound 48]
ED50 / mg/kg: 0.16
--
MOLECULE: COc1ccc(CCN2CCC(Cc3nc4cccnc4n3Cc3ccccc3)CC2)cc1 [Compound 198]
ED50 / mg/kg: 0.04
--
MOLECULE: COc1ccc(CCN2CCC(Cc3nc4cccnc4n3Cc3cccs3)CC2)cc1 [Compound 238]
ED50 / mg/kg: 0.08
--
MOLECULE: O=c1[nH]c2ccccc2n1CCCN1CCC(Cc2nc3cccnc3n2Cc2cccs2)CC1 [Compound 215]
ED50 / mg/kg: 0.08
--
MOLECULE: Cc1nc2n(c(=O)c1CCN1CCC(Cc3nc4ccccc4n3Cc3cscn3)CC1)CCCC2 [Compound 262]
ED50 / mg/kg: 0.04
--
MOLECULE: Cc1ccc(Cn2c(CC3CCN(CCNc4nccs4)CC3)nc3ccccc32)cc1 [Compound 364]
ED50 / mg/kg: 0.04
--
MOLECULE: Cc1csc(NCCN2CCC(Cc3nc4ccccc4n3Cc3ccc(F)cc3)CC2)n1 [Compound 456]
ED50 / mg/kg: 0.01
--
MOLECULE: Fc1ccc(Cn2c(CC3CCN(CCNc4ncccn4)CC3)nc3ccccc32)cc1 [Compound 374]
ED50 / mg/kg: 0.02
--
MOLECULE: COc1ccc(CCN2CCC(Cc3nc4ncccc4n3Cc3ccc(F)cc3)CC2)cc1 [Compound 203]
ED50 / mg/kg: 0.04
--
MOLECULE: Fc1ccc(Cn2c(CC3CCN(CCNc4ncccn4)CC3)nc3cccnc32)cc1 [Compound 376]
ED50 / mg/kg: 0.02
--
MOLECULE: c1coc(Cn2c(CC3CCN(CCNc4nc5cnccc5[nH]4)CC3)nc3cccnc32)c1 [Compound 417]
ED50 / mg/kg: 0.04
--
MOLECULE: Oc1nc2cncnc2n1CCN1CCC(Cc2nc3ccccc3n2Cc2ccc(F)cc2)CC1 [Compound 502]
ED50 / mg/kg: 0.08
--
MOLECULE: Cc1nc2n(c(=O)c1CCN1CCC(Cc3nc4ccccc4n3Cc3ccc(F)cc3)CC1)CCCS2 [Compound 158]
ED50 / mg/kg: 0.04
--
MOLECULE: Fc1ccc(Cn2c(CC3CCN(CCNCc4ccccn4)CC3)nc3ccccc32)cc1 [Compound 427]
ED50 / mg/kg: 0.16
--
MOLECULE: O=C(c1ccccc1)N(CCN1CCC(Cc2nc3ccccc3n2Cc2ccc(F)cc2)CC1)c1ncccn1 [Compound 508]
ED50 / mg/kg: 0.08
--
MOLECULE: c1cnc(NCCN2CCC(Cc3nc4cccnc4n3Cc3cccs3)CC2)nc1 [Compound 342]
ED50 / mg/kg: 0.02
--
MOLECULE: Cc1nc2ccccn2c(=O)c1CCN1CCC(Cc2nc3ccncc3n2Cc2ccc(F)cc2)CC1 [Compound 270]
ED50 / mg/kg: 0.08
--
MOLECULE: COc1ccc(CCN2CCC(Cc3nc4ccccc4n3Cc3ccc(C)o3)CC2)cc1 [Compound 266]
ED50 / mg/kg: 0.04
--
MOLECULE: O=C1OCCN1CCN1CCC(Cc2nc3ccccc3n2Cc2ccc(F)cc2)CC1 [Compound 385]
ED50 / mg/kg: 0.01
--
MOLECULE: c1ccc(Cn2c(CC3CCN(CCNc4nc5cnccc5[nH]4)CC3)nc3ccccc32)cc1 [Compound 422]
ED50 / mg/kg: 0.04
--
MOLECULE: O=C(c1ccco1)N(CCN1CCC(Cc2nc3ccccc3n2Cc2ccco2)CC1)c1ncccn1 [Compound 509]
ED50 / mg/kg: 0.02
--
MOLECULE: Nc1ccccc1C(=O)NCCN1CCC(Oc2nc3ccccc3n2Cc2ccc(F)cc2)CC1 [Compound 480]
ED50 / mg/kg: 0.02
